assay: folding stability dG unfold from trypsin proteolysis; higher = more stable
Would you mind telling me the reported folding stability dG unfold of each entry?
Give the value, in units of kcal/mol, as a plain number.

Ask: Dear colleague, please send me the reported folding stability dG unfold for SAGGSAGGSAGKLRVRIPPRLRERLRKRKRVRLRLRVEEREVRDEDGNLRRVRRLEIELESAGGSAGGSAGG [r11_113_TrROS_Hall] when you can.
Reply: 0.819

Ask: Specify folding stability dG unfold for SAGMPSFTTTSAPTEQLPELLAELATRPPNVSYTFPLPDPSRSLSLSVSADRITLTDPATGTTTTLPASAGG [r19_154_JUSTAS] and stop.
Reply: -0.653

Ask: Return reported folding stability dG unfold. Input sequence: SAGGSAGIEERLKKLAEELGLEVKVTKVEVKVDGKEEVVVEVEVEPPPPPVEVKELSEEERKKAEESAGGSA [r15_256_TrROS_Hall]
Reply: 1.27
